Target: mature human myostatin (human, UniProt O14793 267-375)
Assay: cell-based or functional assay
Would you kindly list IC50 (nM), C2C12/pMARE luciferase reporter cell myostatin activity assay for each of these binders?
Respond with the bare value in nM.

**Q:** Returns the measured IC50 (nM), C2C12/pMARE luciferase reporter cell myostatin activity assay for the input binder. Input: anti-myostatin antibody 12A5-3 (antibody, V domains shown) VH: EVQLVESGGGLVQPGGSLRLSCAASGFTFSNYWCNWVRQAPGKGLEWVAQIRLKSDNYATHYAESVKGRFTISRDNAKNSLYLQMNSLRAEDTAVYYCTEGLDYWGQGTTVTVSS VL: DIQMTQSPSSLSASVGDRVTITCKASQDINKYVAWYQQKPGKAPKLLIYYTSFLQPGVPSRFSGSGSGTDFTFTISSLQPEDIATYYCLQYDNLLYTFGQGTKLEIK
**A:** 2.53

**Q:** Returns the measured IC50 (nM), C2C12/pMARE luciferase reporter cell myostatin activity assay for the input binder. Input: anti-myostatin antibody 12A5-8 (antibody, V domains shown) VH: EVQLVESGGGLVQPGGSLRLSCAASGFTFRNYWCNWVRQAPGKGLEWVAQIRLKSDNYATHYAESVKGRFTISRDNAKNSLYLQMNSLRAEDTAVYYCTEGLDYWGQGTTVTVSS VL: DIQMTQSPSSLSASVGDRVTITCKASQDINKYVAWYQQKPGKAPKLLIYYTKTLQPGVPSRFSGSGSGTDFTFTISSLQPEDIATYYCLQYDNLLYTFGQGTKLEIK
**A:** 4.96

**Q:** Returns the measured IC50 (nM), C2C12/pMARE luciferase reporter cell myostatin activity assay for the input binder. Input: anti-myostatin neutralizing monoclonal antibody 12A5-5 (antibody, V domains shown, in the KinExA assay it was detected with a goat anti-human-Fc antibody, so it carries a human Fc; also called Mab 12A5-5; MAb 12A5-5) VH: EVQLVESGGGLVQPGGSLRLSCAASGFTFSRYWMNWVRQAPGKGLEWVAQIRLKSDNYATHYAESVKGRFTISRDNAKNSLYLQMNSLRAEDTAVYYCTEGLDYWGQGTTVTVSS VL: DIQMTQSPSSLSASVGDRVTITCKASQDINKYVAWYQQKPGKAPKLLIYYTSWLQPGVPSRFSGSGSGTDFTFTISSLQPEDIATYYCLQYDNLLYTFGQGTKLEIK
**A:** 1.85

**Q:** Returns the measured IC50 (nM), C2C12/pMARE luciferase reporter cell myostatin activity assay for the input binder. Input: anti-myostatin antibody 12A5-1 (antibody, V domains shown) VH: EVQLVESGGGLVQPGGSLRLSCAASGFTFSNYWMNWVRQAPGKGLEWVAQIRLKSDNYATHYAESVKGRFTISRDNAKNSLYLQMNSLRAEDTAVYYCARGLDYWGQGTTVTVSS VL: DIQMTQSPSSLSASVGDRVTITCKASQDINKYVAWYQQKPGKAPKLLIYYTSTLQPGVPSRFSGSGSGTDFTFTISSLQPEDIATYYCLQYDNLLYTFGQGTKLEIK
**A:** 473

**Q:** Returns the measured IC50 (nM), C2C12/pMARE luciferase reporter cell myostatin activity assay for the input binder. Input: anti-myostatin antibody 12A5-9 (antibody, V domains shown) VH: EVQLVESGGGLVQPGGSLRLSCAASGFTFRNYWCNWVRQAPGKGLEWVAQIRLKSDNYATHYAESVKGRFTISRDNAKNSLYLQMNSLRAEDTAVYYCTEGLDYWGQGTTVTVSS VL: DIQMTQSPSSLSASVGDRVTITCKASQDINKYVAWYQQKPGKAPKLLIYYTRTLQPGVPSRFSGSGSGTDFTFTISSLQPEDIATYYCLQYDNLLYTFGQGTKLEIK
**A:** 3.98

**Q:** Returns the measured IC50 (nM), C2C12/pMARE luciferase reporter cell myostatin activity assay for the input binder. Input: anti-myostatin antibody 12A5-10 (antibody, V domains shown) VH: EVQLVESGGGLVQPGGSLRLSCAASGFTFRNYWCNWVRQAPGKGLEWVAQIRLKSDNYATHYAESVKGRFTISRDNAKNSLYLQMNSLRAEDTAVYYCTEGLDYWGQGTTVTVSS VL: DIQMTQSPSSLSASVGDRVTITCKASQDINKYVAWYQQKPGKAPKLLIYYTSTLQPGVPSRFSGSGSGTDFTFTISSLQPEDIATYYCLQYDNKLYTFGQGTKLEIK
**A:** 3.08

**Q:** Returns the measured IC50 (nM), C2C12/pMARE luciferase reporter cell myostatin activity assay for the input binder. Input: anti-myostatin antibody 12A5-6 (antibody, V domains shown) VH: EVQLVESGGGLVQPGGSLRLSCAASGFTFSRYWMNWVRQAPGKGLEWVAQIRLKSDNYATHYAESVKGRFTISRDNAKNSLYLQMNSLRAEDTAVYYCTEGLDYWGQGTTVTVSS VL: DIQMTQSPSSLSASVGDRVTITCKASQDINKYVAWYQQKPGKAPKLLIYYTSFLQPGVPSRFSGSGSGTDFTFTISSLQPEDIATYYCLQYDALLYTFGQGTKLEIK
**A:** 1.64

**Q:** Returns the measured IC50 (nM), C2C12/pMARE luciferase reporter cell myostatin activity assay for the input binder. Input: anti-myostatin antibody 12A5-12 (antibody, V domains shown) VH: EVQLVESGGGLVQPGGSLRLSCAASGFTFSNYWLNWVRQAPGKGLEWVAQIRLKSDNYATHYAESVKGRFTISRDNAKNSLYLQMNSLRAEDTAVYYCTEGLDYWGQGTTVTVSS VL: DIQMTQSPSSLSASVGDRVTITCKASQDINKYVAWYQQKPGKAPKLLIYYTSWLQPGVPSRFSGSGSGTDFTFTISSLQPEDIATYYCLQYDNLLYTFGQGTKLEIK
**A:** 1.45

**Q:** Returns the measured IC50 (nM), C2C12/pMARE luciferase reporter cell myostatin activity assay for the input binder. Input: anti-myostatin antibody 12A5-18 (antibody, V domains shown) VH: EVQLVESGGGLVQPGGSLRLSCAASGFTFRNYWCNWVRQAPGKGLEWVAQIRLKSDNYATHYAESVKGRFTISRDNAKNSLYLQMNSLRAEDTAVYYCTEGLDYWGQGTTVTVSS VL: DIQMTQSPSSLSASVGDRVTITCKASQDINKYVAWYQQKPGKAPKLLIYYTSHLQPGVPSRFSGSGSGTDFTFTISSLQPEDIATYYCLQYDNLLYTFGQGTKLEIK
**A:** 1.45
